Readings of self-splicing fitness (ln) for the listed sequences
- EXPERIMENTAL PROTOCOL: self-splicing fitness, log relative to wild type (ln ratio); higher = more splicing; Tetrahymena group I intron in knt gene, E. coli kanamycin selection, DiMSum; sequences stand for … in CUCUCU…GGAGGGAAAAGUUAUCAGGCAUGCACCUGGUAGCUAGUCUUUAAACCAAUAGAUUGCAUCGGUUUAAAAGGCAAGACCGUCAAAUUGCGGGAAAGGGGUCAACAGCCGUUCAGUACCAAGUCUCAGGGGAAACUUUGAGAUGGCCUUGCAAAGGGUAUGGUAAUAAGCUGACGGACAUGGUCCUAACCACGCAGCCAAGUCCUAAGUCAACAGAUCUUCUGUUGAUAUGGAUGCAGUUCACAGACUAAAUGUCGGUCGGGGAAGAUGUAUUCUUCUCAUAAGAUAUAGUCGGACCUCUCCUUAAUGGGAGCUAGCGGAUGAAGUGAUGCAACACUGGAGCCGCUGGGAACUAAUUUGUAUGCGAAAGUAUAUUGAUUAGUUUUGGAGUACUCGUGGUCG;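 further: selection with 25 µg/mL kanamycin versus none on LB agar overnight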
- RUN CONDITIONS: 37 °C

| QUERY SEQUENCE | self-splicing fitness (ln) |
| --- | --- |
| UAAGAGCAAUAUUACGGCAU | -1 |
| CGGAAGCAAUAUUACGGUCG | -0.978 |
| CACUAGCAAUAUUACGGAAA | -1.42 |
| CUUUAGCAAUAUUACGCGGA | -2.81 |
| GCUCAGCAAUAUUACGGCGC | -0.248 |
| GAGAAGCAAUAUUACGGUGU | -1.58 |
| UCAAAGCAAUAUUACGUGAA | -1.06 |
| GCCCAGCAAUAUUACGCCGU | -0.492 |
| AAAGAGCAAUAUUACGACGU | -0.555 |
| AGAAAGCAAUAUUACGCAUA | -1.19 |
| CGCCAGCAAUAUUACGUCUC | -2.45 |
| UUAUAGCAAUAUUACGGACA | -0.61 |
| ACGAAGCAAUAUUACGUAUA | -2.16 |
| CGGCAGCAAUAUUACGUUGU | -2.68 |
| AGUAAGCAAUAUUACGGUAU | -1.35 |
| AUCGAGCAAUAUUACGCGGC | -3.13 |
| GGAUAGCAAUAUUACGUCAG | -2.12 |
| UCUAAGCAAUAUUACGGCGU | -0.795 |
| AACCAGCAAUAUUACGCCCU | -0.381 |
| UAGGAGCAAUAUUACGCUGG | -0.826 |
| GUUGAGCAAUAUUACGCCCA | -1.74 |
| UCCUAGCAAUAUUACGUAAA | 0.0696 |
| CAACAGCAAUAUUACGAUCU | -0.986 |
| GACAAGCAAUAUUACGGGUU | -3.46 |
| GCUCAGCAAUAUUACGUACU | -0.636 |
| AAAAAGCAAUAUUACGAGCA | -0.722 |
| GGAGAGCAAUAUUACGACGA | -2.08 |
| ACGAAGCAAUAUUACGGCAC | -0.996 |
| UUUAAGCAAUAUUACGCAUC | -2.25 |
| UGUCAGCAAUAUUACGACUC | 0.256 |
| ACACAGCAAUAUUACGUCGU | -1.58 |
| UCCAAGCAAUAUUACGCUGU | -2.25 |
| ACUUAGCAAUAUUACGUGUG | -1.06 |
| GAUAAGCAAUAUUACGGGUG | -1.02 |
| AUACAGCAAUAUUACGCGCA | -0.0747 |
| CCAAAGCAAUAUUACGGUGG | -1.76 |

Data origin: the supplement of paper PMC7877785
